Recorded IC50 by entry
Molecular target: T1, recombinant trimeric protein of human CD70 extracellular region (human CD70 mIgG Fc (knob) / mouse IgG Fc … (human, UniProt P01863 98-330 = IgG part))
T1 construct: The ELISA and Octet texts say only 'recombinant CD70 protein' / 'CM352 antigen'; also called recombinant human CD70 protein; recombinant CD70 protein
T1 chain 1: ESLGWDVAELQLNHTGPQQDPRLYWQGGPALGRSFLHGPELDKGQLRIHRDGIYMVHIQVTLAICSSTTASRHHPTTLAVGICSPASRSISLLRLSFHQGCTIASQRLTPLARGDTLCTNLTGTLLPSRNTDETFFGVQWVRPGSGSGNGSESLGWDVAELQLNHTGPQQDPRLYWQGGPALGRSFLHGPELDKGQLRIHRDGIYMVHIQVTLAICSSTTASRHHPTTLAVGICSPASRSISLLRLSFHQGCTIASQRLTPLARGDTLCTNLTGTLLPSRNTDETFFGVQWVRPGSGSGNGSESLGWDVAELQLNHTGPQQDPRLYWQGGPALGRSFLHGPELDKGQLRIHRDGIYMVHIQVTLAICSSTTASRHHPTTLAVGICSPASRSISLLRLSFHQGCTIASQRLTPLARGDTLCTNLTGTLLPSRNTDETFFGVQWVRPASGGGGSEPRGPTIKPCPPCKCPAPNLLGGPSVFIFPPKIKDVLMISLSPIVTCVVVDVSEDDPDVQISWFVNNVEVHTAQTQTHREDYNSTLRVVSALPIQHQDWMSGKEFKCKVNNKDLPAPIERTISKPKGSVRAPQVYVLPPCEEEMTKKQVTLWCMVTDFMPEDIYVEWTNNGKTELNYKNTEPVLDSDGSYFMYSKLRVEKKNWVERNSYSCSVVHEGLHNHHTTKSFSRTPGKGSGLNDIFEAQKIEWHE
T1 chain 2: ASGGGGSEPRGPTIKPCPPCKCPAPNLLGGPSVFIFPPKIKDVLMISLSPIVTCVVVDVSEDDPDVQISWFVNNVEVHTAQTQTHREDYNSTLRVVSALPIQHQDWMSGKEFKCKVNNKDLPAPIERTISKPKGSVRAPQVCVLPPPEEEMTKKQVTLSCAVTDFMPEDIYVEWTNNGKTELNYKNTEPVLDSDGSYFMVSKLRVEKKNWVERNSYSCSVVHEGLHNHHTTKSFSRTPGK
Experiment: competition ELISA, chimeric IgG titrated, CD27 coated, biotin-CD70, human pair

{"BINDER": "27A3 chimeric antibody (antibody, V domains shown) VH: EVQLQESGPGLVQPSQSLSITCTVSGFSLTTYAVHWVRQSPGKGLEWLGVIWSTGITDYNADFISRLSISKDNSKSQVFFKMDSLQSDDTAIYFCARNHYYGNLNAMDYWGQGTSVTVSS VL: DIVLTQSPASLAVSLGQRATISCRASKSVSTSGYSFMHWYQQKPGQPPKLLIYLASNLESGVPARFSGSGSGTDFTLNIHPVEEEDAATYYCQHSRELPYTFGGGTKLEIK", "IC50 / pM": 80}
{"BINDER": "23A11 chimeric antibody (antibody, V domains shown) VH: QVQLQQSGPGLVQPSQSLSITCTVSGFSLTTYAVHWVRQSPGKGLEWLGVIWSVGSTDYNAAFISRLSISKDNSKSQVFFKMNSLQADDTAIYYCARNIYYGNVYAMDYWGQGTSVTVSS VL: DIVLTQSPASLAVSLGQRATISCRASKSVDASGYSFMHWYQQKAGQPPKLLIYLASNLESGVPARFSGRGSGTDFTLNIHPVEEGDAATYYCQHSRELPLTFGAGTKLEIK", "IC50 / pM": 70}
{"BINDER": "12A1 chimeric antibody (antibody, V domains shown) VH: QVQLQQSGPGLVQPSQSLSITCTVSGFSLTTYAVHWVRQSPGKGLEWLGVIWSTGITDYNAAFISRLSISKDNSKSQVFFKMDSLQSDDTAIYFCARNPHYGNLNAMDYWGQGTSVTVSS VL: DIVLTQSPASLAVSLGQRATISCRASKSVSASGYTWMHWYQQKPGQAPKLLIYLASNLESGVPARFSGSGSGTDFTLNIHPVEEEDAATYYCQHSRELPPTFGGGTKLEIK", "IC50 / pM": 120}
